The values you see were collected from ChEMBL document CHEMBL1795290.

Molecular target: UniProt:Q8IXJ6
Sequence (Q8IXJ6 whole entry): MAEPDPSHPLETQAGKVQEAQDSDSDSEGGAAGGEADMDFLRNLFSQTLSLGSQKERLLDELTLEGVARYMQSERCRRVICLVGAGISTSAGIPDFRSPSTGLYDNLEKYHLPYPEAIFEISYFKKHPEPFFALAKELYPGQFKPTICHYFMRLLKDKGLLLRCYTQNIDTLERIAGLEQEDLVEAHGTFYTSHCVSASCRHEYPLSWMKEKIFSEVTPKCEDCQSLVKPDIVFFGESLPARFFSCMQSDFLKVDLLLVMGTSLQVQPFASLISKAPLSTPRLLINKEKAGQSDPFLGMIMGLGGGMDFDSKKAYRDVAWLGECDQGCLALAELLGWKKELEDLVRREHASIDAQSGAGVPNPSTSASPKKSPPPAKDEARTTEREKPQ
Assay: Inhibition of human recombinant SIRT2 expressed in Escherichia coli incubated at 37 degC for 2 hrs by Fluor de Lys fluorescence assay
Answer each item with its documented IC50.
Numbers only, in µM.

Example results:
{"columns": ["compound", "assayed system", "value type", "val"],
 "data": [
  ["O=C1Oc2ccc3ccccc3c2CC1C(=O)c1ccc(-c2ccccc2)cc1 (stereo not given)", "UniProt:Q8IXJ6", "IC50", 10],
  ["O=C1Oc2ccc3ccccc3c2CC1C(=O)c1ccc2ccccc2c1 (stereo not given)", "UniProt:Q8IXJ6", "IC50", 8.9],
  ["O=C1Oc2ccc3ccccc3c2CC1C(=O)c1ccccc1 (stereo not given)", "UniProt:Q8IXJ6", "IC50", 179],
  ["O=c1[nH]c(=S)[nH]c(-c2ccc3ccccc3c2)c1Cc1c(O)ccc2ccccc12", "UniProt:Q8IXJ6", "IC50", 49.9]
]}

Problem: Return the recorded IC50 value; entry: O=c1[nH]c(=S)[nH]c(CCc2ccccc2)c1Cc1c(O)ccc2ccccc12
Solution: 50.8
